Tested on: HepG2
TEST_NAME: relative viability EC50 (midpoint between 100% and the lowest measured viability); higher = less toxic
STUDY_CONDITIONS: 72 h
PARAMETER: relative viability EC50

Enquiry: Consider the compound CC(C)(C)c1ccc2cc(C#N)c(C#N)cc2c1 . State its measured relative viability EC50.
Return: > 10 µM

Enquiry: Consider the compound COc1cc2c(cc1OC)[C@@H](Cc1cc(OC)c(OC)c(OC)c1)[N+](C)(CCCOC(=O)CC/C=C/CCC(=O)OCCC[N+]1(C)CCc3cc(OC)c(OC)cc3[C@H]1Cc1cc(OC)c(OC)c(OC)c1)CC2 (some centres undefined) and give its recorded relative viability EC50.
Return: > 10 µM

Enquiry: Indicate the recorded relative viability EC50 value for this compound: CCCC(CCC)C(=O)NCC(N)=O [valrocemide]
Return: > 10 µM

Enquiry: Identify measured relative viability EC50 associated with CCN(CC)C(C)C(=O)c1ccccc1 (centres undefined)
Return: > 10 µM

Enquiry: # return recorded relative viability EC50 for input Sc1ncnc2nc[nH]c12
Return: 1.23 µM

Enquiry: In one line, give reported relative viability EC50 of the entry CCCCCCCCCCCCCCCCCC(=O)OC[C@@H](O)[C@H]1OC[C@H](O)[C@H]1O [sorbitan-monostearate] .
Return: > 10 µM

Enquiry: Item O=C1C=C2C=C[C@@H]3C[C@@]2(O1)[C@H]1CCCCN31 : provide relative viability EC50
Return: > 10 µM

Enquiry: Recall and state the measured relative viability EC50 for CC(=O)Nc1ccc(OC(C)=O)cc1 [diacetamate] .
Return: > 10 µM

Enquiry: Specify relative viability EC50 for OC[C@@H](O)[C@@H](O)[C@@H](O)CO and stop.
Return: > 10 µM

----------
Test system: U2OS
TEST_NAME: cell viability relative to DMSO; higher = less toxic
STUDY_CONDITIONS: 72 h; 1 nM
PARAMETER: cell viability (%)
Field format: number, assumed %, no unit text.

Enquiry: Please supply the value of reported cell viability for the item CC[C@H]1CN2CCc3cc(OC)c(OC)cc3[C@@H]2C[C@@H]1C[C@H]1NCCc2cc(OC)c(OC)cc21
Return: 101

Enquiry: Tell me cell viability reported for COc1cc(C(=O)NCCCCCC(=O)O)cc(OC)c1OC
Return: 97

Enquiry: Give reported cell viability value for CC=CC1=C(C(=O)O)N2C(=O)[C@@H](NC(=O)[C@H](N)c3ccc(O)cc3)[C@H]2SC1 (mixture of isomers)
Return: 95.8

Enquiry: Give the reported value of cell viability for this record: CC(=O)O[C@@H]1C[C@H]2C(C)(C)C(=O)C=C[C@]2(C)[C@H]2CC[C@@]3(C)[C@H](c4ccoc4)OC(=O)[C@H]4O[C@]43[C@@]21C
Return: 99.5

Enquiry: Identify the reported cell viability for the following entry. Cc1csc(NC(=O)CSc2ccc(-c3ccccc3)nn2)n1
Return: 98

Enquiry: Report cell viability for O=C(/C=C/c1ccc(O)c(O)c1)O[C@H](Cc1ccc(O)c(O)c1)C(=O)O
Return: 101

Enquiry: Give cell viability for CC(COc1ccccc1Cc1ccccc1)N1CCCCC1 (stereo unspecified)
Return: 92.8

Enquiry: Annotate the compound CC(=O)c1ccc2c(c1)[C@H](NC(=O)c1ccc(F)c(Cl)c1)[C@H](O)C(C)(C)O2 with its measured cell viability.
Return: 100

Enquiry: Please give the documented cell viability of CC(CCc1ccc(O)cc1)NCCc1ccc(O)c(O)c1 (stereo unspecified)
Return: 101

Enquiry: Identify cell viability associated with the compound CN1Cc2c(N)cccc2C(c2ccccc2)C1 (stereo unspecified)
Return: 101

Enquiry: Look up and state reported cell viability for Cn1c2cc([S+](C)[O-])sc2c2cnn(Cc3cccc(N)c3)c(=O)c21 (stereo unspecified)
Return: 98.3

Enquiry: Please report the measured cell viability for CCN1CCN(C(=O)Cc2ccc(Nc3ncc(F)c(Nc4ccc(C(=O)Nc5ccccc5Cl)cc4)n3)cc2)CC1
Return: 100

Enquiry: Indicate the recorded cell viability value for this compound: C[C@]12CC[C@@H](O)C[C@H]1CC[C@@H]1[C@@H]2CC[C@]2(C)C(=O)CC[C@@H]12 [3-alpha-hydroxy-5-beta-androstan-17-one]
Return: 102

Enquiry: Tell me its cell viability given COc1cc2c(cc1OC)[C@@H](Cc1cc(OC)c(OC)c(OC)c1)[N+](C)(CCCOC(=O)CC/C=C/CCC(=O)OCCC[N+]1(C)CCc3cc(OC)c(OC)cc3[C@H]1Cc1cc(OC)c(OC)c(OC)c1)CC2 (stereo partly specified) as the entry.
Return: 102

Enquiry: Read the entry CCn1c(=O)c(-c2cc[nH]n2)cc2c(C)nc(N)nc21 and write its reported cell viability.
Return: 99.3

Enquiry: Report measured cell viability; entry is C[C@H](c1ccc(F)cc1CCCC(=O)O)N(c1cc(F)ccc1F)S(=O)(=O)c1ccc(Cl)cc1
Return: 101

----------
Tested on: U2OS
TEST_NAME: drug sensitivity score (DSS) for viability; higher = more toxic; extreme values may be limits of the assay
STUDY_CONDITIONS: 72 h
PARAMETER: drug sensitivity score
# respond with the number and nothing more

Enquiry: Provide measured drug sensitivity score value, entry: S=C(NCCc1ccccn1)Nc1ccc(Br)cn1
Return: 0

Enquiry: Dear colleague, please send me the reported drug sensitivity score for Cc1nc2cnc3ccc(C#Cc4cccnc4)cc3c2n1-c1ccc(C(C)(C)C#N)cc1 when you can.
Return: 15.8

Enquiry: # return recorded drug sensitivity score for entry CN1CC2c3ccccc3Oc3ccc(Cl)cc3C2C1 (stereo not given)
Return: 0

Enquiry: Quick one: give measured drug sensitivity score for CC(C)(Cc1ccc2ccccc2c1)NC[C@@H](O)COc1cccc(Cl)c1C#N
Return: 3.9

Enquiry: Report drug sensitivity score, nothing else, for this compound: CCCC(C)(COC(N)=O)COC(=O)NC(C)C (stereo not given)
Return: 0

----------
Tested on: Caco-2
TEST_NAME: cell viability relative to DMSO; higher = less toxic
STUDY_CONDITIONS: 72 h; 1 nM
PARAMETER: cell viability (%)
Give a bare numeral; the unit % is implied.

Enquiry: Return the recorded cell viability value; entry: CC(C)(Oc1ccc(CCNC(=O)c2ccc(Cl)cc2)cc1)C(=O)O [bezafibrate]
Return: 102

Enquiry: Recall and state the measured cell viability for Cc1cc(C(=O)Nc2nc3cccc(Cl)c3n2[C@@H]2CCCCN(C(=O)/C=C/CN(C)C)C2)ccn1 [EGF816] .
Return: 95.5

Enquiry: Return reported cell viability. Input compound: Cc1cc(OI)c(C(C)C)cc1-c1cc(C(C)C)c(OI)cc1C [thymol-iodide]
Return: 104

Enquiry: Determine its reported cell viability: C[C@]12CC[C@@H](O)C[C@H]1CC[C@@H]1[C@@H]2CC[C@]2(C)C(=O)CC[C@@H]12 [3-alpha-hydroxy-5-beta-androstan-17-one]
Return: 97.8

Enquiry: Give the value of cell viability reported for the following: N[C@@H]1c2cccnc2[C@H](OC(=O)N2CCC(n3c(=O)[nH]c4ncccc43)CC2)CC[C@H]1c1cccc(F)c1F [rimegepant]
Return: 99.3

Enquiry: Name the recorded cell viability of the compound listed here: COc1ccc(C(=O)NCc2cccnc2)cc1C(=O)NCc1cccnc1 [picotamide]
Return: 101

Enquiry: Look up and state reported cell viability for C[C@H]1[C@H](C)CC[C@]2(C(=O)O)CC[C@]3(C)C(=CC[C@@H]4[C@@]5(C)C[C@@H](O)[C@H](O)[C@@](C)(CO)[C@@H]5CC[C@]43C)[C@H]12 [asiatic-acid]
Return: 101

Enquiry: Given CCN(CC)CCNC(=O)COc1ccc(OC)cc1 [mefexamide] , respond with its cell viability.
Return: 93

----------
Test system: Caco-2
TEST_NAME: cell viability relative to DMSO; higher = less toxic
STUDY_CONDITIONS: 72 h; 1 nM
Please go through the items and note down their cell viability.
The reply must contain the numeric value and, after it, the unit.

Enquiry: Identify cell viability associated with the compound CC(C)NCC(O)COc1cccc2[nH]c3ccccc3c12 (stereo not drawn)
Return: 97.4%

Enquiry: Let me know recorded cell viability for CC(C)S(=O)(=O)NC[C@H](C)c1ccc(-c2ccc(CCNS(C)(=O)=O)cc2)cc1 , thanks.
Return: 96.4%

Enquiry: Assign cell viability to the following record: CC1=CC[C@@H](C(C)(C)O)C[C@@H]1O [sobrepin]
Return: 109%

Enquiry: In one line, give reported cell viability of the entry Cc1nc2c(c(=O)[nH]1)CSCC2 .
Return: 92.6%

Enquiry: Return cell viability (reported value) for this compound: CC(C)(C)C#Cc1cc(N(C(=O)[C@H]2CC[C@H](C)CC2)[C@H]2CC[C@@H](O)CC2)c(C(=O)O)s1
Return: 103%

Enquiry: State, in one line, measured cell viability of CS(=O)(=O)N1CCc2c(-c3cnc(N)nc3)nc(N3CCOCC3)nc21
Return: 93.3%

Enquiry: Return value of cell viability for input CC(C)(C)NC(=O)[C@@H]1C[C@@H]2CCCC[C@@H]2CN1C[C@@H](O)[C@H](Cc1ccccc1)NC(=O)[C@H](CC(N)=O)NC(=O)c1ccc2ccccc2n1 , no commentary.
Return: 101%

Enquiry: Give me measured cell viability, please, for this compound: CCC(CC)[C@H](NC(C)=O)[C@@H]1[C@H](O)[C@@H](C(=O)O)C[C@H]1NC(=N)N
Return: 98.8%
